- experiment_notes: Primary qHTS for Huh7 cytotoxicity: counterscreen for inhibitors of MERS-S pseudotyped particle cell entry (AID 1479147)
- condition_parameters: cell viability read-out; series mostly up to 57.1 µM
Inconclusive results are not listed. Calls of active or inactive are those of the source. Calls follow the shape of the full dose curve.
measured_metric: outcome

• C[C@H]1[C@H](NC(=O)/C(=N/OC(C)(C)C(=O)O)c2csc(N)n2)C(=O)N1S(=O)(=O)O (stereo in doubt) = inactive
• Cc1[nH]cnc1CN1CCc2c(c3ccccc3n2C)C1=O = inactive
• CCC1C(=O)OCC1Cc1cncn1C (stereo unspecified) = inactive
• N=C(N)c1ccc(OCCCCCOc2ccc(C(=N)N)cc2)cc1 = inactive
• Cc1nc2n(c(=O)c1CCN1CCC(c3noc4cc(F)ccc34)CC1)CCCC2 = inactive
• O=c1[nH]cc(F)c(=O)[nH]1 = inactive

====

- condition_parameters: Ebola virus entry assay, ratio channel readout
The source made the active and inactive calls. Calls follow the shape of the full dose curve.
Labels: active, inactive

• O=P(O)(O)C(O)(Cc1cccnc1)P(=O)(O)O = inactive
• CC(=O)O[C@@]12CO[C@@H]1C[C@H](O)[C@@]1(C)C(=O)[C@H](O)C3=C(C)[C@@H](OC(=O)[C@H](O)[C@@H](NC(=O)OC(C)(C)C)c4ccccc4)C[C@@](O)([C@@H](OC(=O)c4ccccc4)[C@H]21)C3(C)C = inactive
• Cc1cccc(Nc2ccccc2C(=O)O)c1C = inactive
• CCOC(=O)Nc1ccc2c(c1)N(C(=O)CCN1CCOCC1)c1ccccc1S2 = inactive
• CC(C)NC[C@@H](O)COc1ccc(CC(N)=O)cc1 = inactive
• NCC1(CC(=O)O)CCCCC1 = inactive
• CC(C)(C#N)c1cc(Cn2cncn2)cc(C(C)(C)C#N)c1 = inactive
• CCCNC(=O)NS(=O)(=O)c1ccc(Cl)cc1 = inactive
• COc1cc2c(c(OC)c1OC)-c1ccc(OC)c(=O)cc1[C@@H](NC(C)=O)CC2 = active
• COc1cc(C(=O)NCc2ccc(OCCN(C)C)cc2)cc(OC)c1OC = inactive

====

- test_target: Calcium and integrin-binding protein 1 (Homo sapiens) (UniProt Q99828)
- Sequence (Q99828 whole entry, looked up): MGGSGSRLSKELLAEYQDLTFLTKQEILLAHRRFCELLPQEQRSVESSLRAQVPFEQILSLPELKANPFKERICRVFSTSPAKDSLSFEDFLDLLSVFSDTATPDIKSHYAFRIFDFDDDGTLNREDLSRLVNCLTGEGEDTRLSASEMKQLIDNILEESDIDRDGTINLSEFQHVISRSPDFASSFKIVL
- experiment_notes: Validation qHTS for Identification of Calcium Integrin Binding protein 1 (CIB1) Competitor (AID 1508618); also: potency is read from the fitted curve at half-maximal effect
- condition_parameters: CIB1-GST / FITC-alphaIIb peptide fluorescence polarization; series mostly up to 114 µM
Results filed as inconclusive are left out. Active and inactive are the calls of the source. Calls come from the whole dose curve; as a rule, active = well fitted curve in the direction sought with a large enough effect; inconclusive = small, poorly fitted or top-dose-only effect, or another doubt; inactive = no such curve, though single readings can be large or run the other way.
measured_metric: Potency

• Fc1ccc(C(OCCN2CCN(CCCc3ccccc3)CC2)c2ccc(F)cc2)cc1 = inactive
• CC(C)=CCOc1c2occc2cc2ccc(=O)oc12 = inactive
• Cc1ccc(S(=O)(=O)N[C@@H](CCCCN)C(=O)CCl)cc1 = inactive
• CC[C@@H](CO)NC(=O)[C@@H]1C=C2c3cccc4c3c(cn4C)C[C@H]2N(C)C1 = 44.7 µM (active)
• CN1C[C@H](CNC(=O)OCc2ccccc2)C[C@@H]2c3cccc4c3c(cn4C)C[C@H]21 = 44.7 µM (active)
• Nc1ccncc1 = inactive
• c1ccc2c(c1)OCC(C1=NCCN1)O2 (stereo not given) = inactive
• C[C@@H]1O[C@@H](O[C@H]2C[C@@H](O)[C@]3(CO)[C@H]4[C@H](O)C[C@]5(C)[C@@H](C6=CC(=O)OC6)CC[C@]5(O)[C@@H]4CC[C@]3(O)C2)[C@H](O)[C@H](O)[C@H]1O = inactive
• c1ccc(C2CC2)c(OCC2=NCCN2)c1 = inactive
• CC(=O)[C@H]1CC[C@H]2[C@@H]3CC[C@H]4C[C@](C)(O)CC[C@]4(C)[C@H]3CC[C@]12C = inactive
